Where these numbers come from: patent US5925633A

# target: cathepsin B (Rattus norvegicus)
# assay_name: In vitro assay procedure for cathepsin B (inhibition)
# Format: biochemical
# condition_set: rat cathepsin B, pH 5.1, 10 min incubation at room temperature, substrate N-CBZ-Phe-Arg-AMC; read-out: IC50 Cathepsin B
quantity_kind: IC50 (µM)
The figure you give is taken to be in µM; do not add the unit.

Sample records with IC50:
O=C(NCC1CN2C(=O)CC2O1)c1ccccc1 (stereo not drawn); 4.1
O=C(CNC(=O)OCc1ccccc1)NCC(=O)OCC1CN2C(=O)CC2O1 (stereo not drawn); 6.7
O=C(O)c1ccccc1C(=O)OCC1CN2C(=O)CC2O1 (stereo not drawn); 6.9
O=C(OCc1ccccc1)[C@@H]1CCCN1C(=O)CC1CN2C(=O)CC2O1 (stereo partly drawn); 13.7
COc1ccc(C(=O)OCC2CN3C(=O)CC3O2)cc1OC (stereo not drawn); 3.3
COc1cc(C(=O)OCC2CN3C(=O)CC3O2)cc(OC)c1O (stereo not drawn); 3.1
N#Cc1ccc(C(=O)OCC2CN3C(=O)CC3O2)cc1 (stereo not drawn); 3.7

(Q) Quick check: IC50 of O=C(CNC(=O)[C@H](Cc1ccccc1)NC(=O)OCc1ccccc1)OC[C@H]1CN2C(=O)C[C@@H]2O1 (mixture of isomers) ?
(A) 3.11

====

IC50 overview
# target: cathepsin B (Rattus norvegicus)
# assay_name: In vitro assay procedure for cathepsin B (inhibition)
# Format: biochemical
The figure you give is taken to be in µM; do not add the unit.

CC(C)(C)[Si](C)(C)OC[C@H]1CN2C(=O)C[C@H]2O1 [Example 1B]; 7.78

Note: attention shifts to another entry.
(Q) Quick check: IC50 of CC(C)(C)[Si](C)(C)OC[C@H]1CN2C(=O)C[C@@H]2O1 [Example 1A] ?
(A) 0.778

====

log10(IC50) overview
# target: cathepsin B (Rattus norvegicus, UniProt P00787)
# Sequence (P00787 80-339): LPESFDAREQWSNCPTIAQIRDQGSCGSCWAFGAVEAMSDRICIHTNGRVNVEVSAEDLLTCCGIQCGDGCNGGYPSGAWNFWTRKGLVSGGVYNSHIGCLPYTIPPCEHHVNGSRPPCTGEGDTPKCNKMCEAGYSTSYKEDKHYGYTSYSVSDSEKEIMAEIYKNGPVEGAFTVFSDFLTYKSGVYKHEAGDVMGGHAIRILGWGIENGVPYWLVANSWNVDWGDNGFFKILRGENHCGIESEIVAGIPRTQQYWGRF
# assay_name: In vitro assay procedure for cathepsin B (inhibition)
# Assay type: biochemical
# condition_set: rat cathepsin B, pH 5.1, 10 min incubation at room temperature, substrate N-CBZ-Phe-Arg-AMC; read-out: IC50 Cathepsin B
Record value = log10 of IC50 given in nM.

Sample records with log10(IC50):
CC(C)C(=O)NCC1CN2C(=O)CC2O1 (centres unmarked) [Example 30]; 2.66
Cc1c(C(=O)NC[C@@H]2CN3C(=O)C[C@@H]3O2)c(=O)[nH]c2ccccc12 (racemic) [Example 16]; 3.62

(Q) Quick check: log10(IC50) of O=C(CCl)NCC1CN2C(=O)CC2O1 (centres unmarked) [Example 27] ?
(A) 2.60

(Q) Quick check: log10(IC50) of CC(=O)NCC[S+]([O-])CC1CN2C(=O)CC2O1 (centres unmarked) [Example 34] ?
(A) 4.16

(Q) Quick check: log10(IC50) of CC[C@H](C)[C@H](NC(=O)OCc1ccccc1)C(=O)OC[C@H]1CN2C(=O)C[C@@H]2O1 (mixture of isomers) [Example 6] ?
(A) 2.71

====

# target: papain (Carica papaya)
# Sequence (P00784 134-345): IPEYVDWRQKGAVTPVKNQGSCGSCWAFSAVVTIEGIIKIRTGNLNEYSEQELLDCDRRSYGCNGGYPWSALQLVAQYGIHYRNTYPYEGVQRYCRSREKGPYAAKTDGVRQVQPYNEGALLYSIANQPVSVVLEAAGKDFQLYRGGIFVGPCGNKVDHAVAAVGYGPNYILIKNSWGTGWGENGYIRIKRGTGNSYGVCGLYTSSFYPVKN
# assay_name: In vitro assay procedure for papain (inhibition)
# Type: biochemical
# condition_set: pH 6.5, 10 min incubation at room temperature, substrate N-CBZ-Pro-Phe-Arg-pNA; read-out: IC50 Papain
quantity_kind: IC50 (µM)
The figure you give is taken to be in µM; do not add the unit.

Sample records with IC50:
CC(C)C[C@H](NC(=O)OCc1ccccc1)C(=O)N1CCC[C@H]1C(=O)OC[C@H]1CN2C(=O)C[C@@H]2O1 (mixture of isomers); 2.05
NCC1CN2C(=O)CC2O1 (stereo not shown); 5.5
O=C1C[C@@H]2O[C@@H](CO)CN12; 2.03
NC(Cc1ccccc1)C(=O)NCC1CN2C(=O)CC2O1 (stereo not shown); 0.62
O=C(OCc1ccccc1)[C@@H]1CCCN1C(=O)CC1CN2C(=O)CC2O1 (stereo partly shown); 0.56

(Q) Quick check: IC50 of O=C(OC[C@H]1CN2C(=O)C[C@@H]2O1)[C@@H]1CCCN1C(=O)OCc1ccccc1 (mixture of isomers) ?
(A) 0.49

====

# target: UniProtKB P00787
# assay_name: In vitro assay procedure for cathepsin B (inhibition)
# Type: biochemical
# condition_set: rat cathepsin B, pH 5.1, 10 min incubation at room temperature, substrate N-CBZ-Phe-Arg-AMC; read-out: IC50 Cathepsin B
API: label(entry) gives true (1) if the entry's IC50 is strictly smaller than 4 µM; on equality or larger values it gives false (0).

Observe how each entry below is paired with its result.
O=C1C[C@@H]2O[C@@H](CO)CN12 [Example 2]; false (0)
O=C(OCC1CN2C(=O)CC2O1)c1ccc(O)cc1 (stereo not shown) [Example 67]; true (1)
O=C(NC(c1ccccc1)C(O)C(=O)OCC1CN2C(=O)CC2O1)c1ccccc1 (stereo not shown) [Example 71]; true (1)
Cc1c(C(=O)OC[C@H]2CN3C(=O)C[C@@H]3O2)c(=O)[nH]c2ccccc12 (relative stereo) [Example 10]; true (1)

(Q) Is the reported IC50 for NCC1CN2C(=O)CC2O1 (stereo not shown) [Example 39] strictly below 4 µM?
(A) false (0)

(Q) Is the reported IC50 for CCCCCC(=O)NCC1CN2C(=O)CC2O1 (stereo not shown) [Example 32] strictly below 4 µM?
(A) true (1)

(Q) Is the reported IC50 for O=C1CC(OCC2CN3C(=O)CC3O2)N1 (stereo not shown) [Example 73] strictly below 4 µM?
(A) false (0)

(Q) Is the reported IC50 for CCOC(=O)c1ccc2c(c1)nc1c(=O)n(C[C@H]3CN4C(=O)C[C@@H]4O3)c(=O)nc-1n2C (relative stereo) [Example 15] strictly below 4 µM?
(A) true (1)

(Q) Is the reported IC50 for COc1ccc(C(=O)NCC2CN3C(=O)CC3O2)cc1OC (stereo not shown) [Example 47] strictly below 4 µM?
(A) false (0)

====

# target: papain (Carica papaya, UniProt P00784)
# assay_name: In vitro assay procedure for papain (inhibition)
# Format: biochemical
# condition_set: pH 6.5, 10 min incubation at room temperature, substrate N-CBZ-Pro-Phe-Arg-pNA; read-out: IC50 Papain
# Experimental: To a 170 μl of enzyme-buffer mixture (enzyme: papain, diluted to give 30 mOD/min, buffer: 0.2 M potassium phosphate, 1.0 mM EDTA, 5 mM L-Cysteine, pH 6.5) a 10 μL of inhibitor (dissolved in DMSO) was added. After 10 min of incubation at room temperature, a 20 μl of 10 mM substrate (N-CBZ-Pro-Phe-Arg-pNA, dissolved in DMSO) was added to initiate reaction. Reading is followed up for 3 min at the Thermomax plate reader (absorbance at 405 nm) […]
quantity_kind: pIC50
Scale note: pIC50 = -log10(concentration in M).

Sample records with pIC50:
COc1ccc(C(=O)NCC2CN3C(=O)CC3O2)cc1OC (stereo not shown) [Example 47]; 6.89
CCCCCC(=O)NCC1CN2C(=O)CC2O1 (stereo not shown) [Example 32]; 5.64
O=C(O)C[S+]([O-])CC1CN2C(=O)CC2O1 (stereo not shown) [Example 29]; 5.41
O=C1CC2OC(CNS(=O)(=O)c3ccc(Cl)cc3)CN12 (stereo not shown) [Example 57]; 6.20

(Q) Quick check: pIC50 of CC(C)C(=O)NCC1CN2C(=O)CC2O1 (stereo not shown) [Example 30] ?
(A) 6.02

(Q) Quick check: pIC50 of O=C(OCC1CN2C(=O)CC2O1)c1ccc2c(c1)C(=O)c1ccccc1C2=O (stereo not shown) [Example 46] ?
(A) 7.68

(Q) Quick check: pIC50 of O=C(CC1CN2C(=O)CC2O1)OC(c1ccccc1)c1ccccc1 (stereo not shown) [Example 18] ?
(A) 5.68

(Q) Quick check: pIC50 of CC(N)C(=O)OCC1CN2C(=O)CC2O1 (stereo not shown) [Example 25] ?
(A) 5.48

(Q) Quick check: pIC50 of O=C(O)C=CC(=O)OCC1CN2C(=O)CC2O1 (stereo not shown) [Example 37] ?
(A) 4.72

(Q) Quick check: pIC50 of CC(=O)OCC1CN2C(=O)CC2O1 (stereo not shown) [Example 44] ?
(A) 6.68

====

# target: UniProt P00784
# assay_name: In vitro assay procedure for papain (inhibition)
# Type: biochemical
# Experimental: To a 170 μl of enzyme-buffer mixture (enzyme: papain, diluted to give 30 mOD/min, buffer: 0.2 M potassium phosphate, 1.0 mM EDTA, 5 mM L-Cysteine, pH 6.5) a 10 μL of inhibitor (dissolved in DMSO) was added. After 10 min of incubation at room temperature, a 20 μl of 10 mM substrate (N-CBZ-Pro-Phe-Arg-pNA, dissolved in DMSO) was added to initiate reaction. Reading is followed up for 3 min at the Thermomax plate reader (absorbance at 405 nm) […]
pIC50 overview
Scale note: pIC50 = -log10(concentration in M).

O=C(O)CC1CN2C(=O)CC2O1 (centres unmarked); 5.77

Note: attention shifts to another entry.
(Q) Quick check: pIC50 of O=C1C[C@@H]2O[C@@H](Cn3ccnn3)CN12 [Example 17] ?
(A) 6.54
